# Tested on: MDA-MB-435 melanoma
# assay explanation: NCI-60 one-dose screen, 48 h (100 = growth as untreated, 0 = no growth, -100 = all killed)
# measurement setup: 10 µM unless noted
The panel holds about 83,000 compounds, 20% with a hit somewhere; the sample as a whole holds those more often.
Each entry below carries its recorded growth.
Value expressed in %; do not type the unit.

// lookup growth for C=C1C(=O)O[C@H]2[C@H]1CC/C(Cn1cc(-c3ccc(F)cc3)nn1)=C\CC[C@@]1(C)O[C@@H]21 -31.4

// lookup growth for COC(=O)c1cc(=O)nc(N/N=C/c2ccc(C)cc2)s1 115

// lookup growth for CCOC(=O)C/C(=C\c1ccccc1)C(C)=O 109

// lookup growth for COc1cc(/C=C2\C(=O)N(CC(O)COc3cc(O)c4c(=O)cc(-c5ccccc5)oc4c3)c3ccccc32)cc(OC)c1O (stereo unspecified) 54.7

// lookup growth for Clc1ccc(Cn2cc(-c3nc4ccc(Br)nc4n3Cc3ccc(Cl)cc3)c3cccnc32)cc1 105

// lookup growth for COc1cc(-c2nc(-c3ccccc3)c(-c3ccccc3)[nH]2)cc(OC)c1O -23.2

// lookup growth for COc1ccc2c(c1)c(-c1nc(-c3c[nH]c4ncccc34)cs1)cn2CCCN1CCCCC1 -84.6
